Molecular target: T1, wild-type EGFR protein on the surfaces of A431 tumor cells and normal human primary hepatocytes (human, UniProt P00533 25-1210)
T1 construct: whole, on cells; Same protein on two cell types; also called human epidermal growth factor receptor; her-1
Experiment: FACS, normal human primary hepatocytes
Assay Metric: mean fluorescence intensity (MFI)
I only need the number, in MFI, no unit after it.

Known mean fluorescence intensity (MFI) results, listed for orientation:
Binder	mean fluorescence intensity (MFI)
Humanized antibody h63A10A7-25 (antibody, human IgG1, V domains shown, Human IgG1 constant region, human kappa constant region) VH: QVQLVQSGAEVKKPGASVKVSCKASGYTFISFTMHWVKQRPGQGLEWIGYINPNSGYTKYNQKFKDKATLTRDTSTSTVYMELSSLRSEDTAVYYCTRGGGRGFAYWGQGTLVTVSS VL: DILMTQSPSSLSASVGDRVTITCHASQDINSNIGWYQQKPGKSFKALIYHGTNLEDGVPSRFSGSGSGADYTLTISSLQPEDFATYYCVQYAQFPFTFGQGTKLEIK	433
Humanized antibody h63A10A7-22 (antibody, human IgG1, V domains shown, Human IgG1 constant region, human kappa constant region) VH: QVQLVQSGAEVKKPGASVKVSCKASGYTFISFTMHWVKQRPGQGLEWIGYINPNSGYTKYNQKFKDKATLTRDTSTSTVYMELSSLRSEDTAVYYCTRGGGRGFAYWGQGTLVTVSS VL: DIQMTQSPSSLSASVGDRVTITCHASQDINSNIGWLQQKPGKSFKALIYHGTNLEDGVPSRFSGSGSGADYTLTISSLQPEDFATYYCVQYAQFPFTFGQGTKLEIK	592

Okay, next one:
Incoming: mean fluorescence intensity (MFI) for Humanized antibody h63A10A7-18 (antibody, human IgG1, V domains shown, Human IgG1 constant region, human kappa constant region) VH: QVQLVQSGAEVKKPGASVKVSCKASGYTFISFTMHWVKQRPGQGLEWIGYINPNSGYTKYNQKFKDKATLTADQSTSTAYMELSSLRSEDTAVYYCTRGGGRGFAYWGQGTLVTVSS VL: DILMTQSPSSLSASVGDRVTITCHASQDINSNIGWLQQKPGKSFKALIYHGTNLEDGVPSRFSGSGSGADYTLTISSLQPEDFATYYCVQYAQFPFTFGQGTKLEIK ?
Outgoing: 553
